Entries and their measured Ki follow.
System name: neuronal nicotinic acetylcholine receptors (Rattus norvegicus, UniProt P09483+P12390)
Construct: crude synaptic membrane preparations from whole rat brain; from tissue; host or cells: whole rat brain, crude synaptic membranes
Sequence (P09483 31-630): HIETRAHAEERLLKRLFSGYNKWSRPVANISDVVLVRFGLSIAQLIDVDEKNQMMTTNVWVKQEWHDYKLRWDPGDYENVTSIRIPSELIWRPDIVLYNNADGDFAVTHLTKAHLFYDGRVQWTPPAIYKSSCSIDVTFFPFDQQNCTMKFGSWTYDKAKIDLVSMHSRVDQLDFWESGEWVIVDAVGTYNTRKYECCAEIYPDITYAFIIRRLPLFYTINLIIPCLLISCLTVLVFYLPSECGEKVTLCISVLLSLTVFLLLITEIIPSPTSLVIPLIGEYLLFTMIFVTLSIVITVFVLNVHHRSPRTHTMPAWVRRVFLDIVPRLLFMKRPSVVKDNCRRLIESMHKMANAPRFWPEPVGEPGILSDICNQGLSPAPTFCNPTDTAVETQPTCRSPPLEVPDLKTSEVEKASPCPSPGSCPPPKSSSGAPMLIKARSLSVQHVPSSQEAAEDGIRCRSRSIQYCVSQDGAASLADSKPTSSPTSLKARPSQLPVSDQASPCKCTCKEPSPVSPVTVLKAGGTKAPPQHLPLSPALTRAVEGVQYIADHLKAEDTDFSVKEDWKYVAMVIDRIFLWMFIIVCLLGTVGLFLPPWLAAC
Sequence (P12390 25-500): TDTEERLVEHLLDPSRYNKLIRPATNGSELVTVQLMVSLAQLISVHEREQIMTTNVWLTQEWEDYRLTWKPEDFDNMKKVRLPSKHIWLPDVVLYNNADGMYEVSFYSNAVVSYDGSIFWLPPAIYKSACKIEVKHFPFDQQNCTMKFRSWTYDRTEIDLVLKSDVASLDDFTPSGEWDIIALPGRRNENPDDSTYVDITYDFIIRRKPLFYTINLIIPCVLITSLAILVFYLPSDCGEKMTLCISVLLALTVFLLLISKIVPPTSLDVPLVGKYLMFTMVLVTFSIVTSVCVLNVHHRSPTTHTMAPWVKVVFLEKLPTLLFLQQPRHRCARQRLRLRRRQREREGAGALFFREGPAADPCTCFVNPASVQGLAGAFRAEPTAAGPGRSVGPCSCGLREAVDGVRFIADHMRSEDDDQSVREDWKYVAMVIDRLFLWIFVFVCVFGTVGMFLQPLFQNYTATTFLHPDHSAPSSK
Measurement notes: [3H]-cytisine binding to neuronal nicotinic acetylcholine receptors, crude synaptic membranes from whole rat brain
Condition notes: [3H]-CYT 1.25 nM, whole rat brain membranes, 60 minutes at 4° C.; Cheng and Prusoff correction; Table 1; read-out: Ki
Readout type: Ki (nM)

1. CC(COc1cnc(Cl)c(C=Cc2ccncc2)c1)N(C)C (single isomer, unassigned) [Example 14]	0.367
2. CN[C@H](C)COc1ccc(Cl)nc1.Cc1ccc(S(=O)(=O)O)cc1	5.87
3. Cc1cc(OC[C@H](C)N)cnc1Cl.Cc1ccc(S(=O)(=O)O)cc1	0.525
4. C[C@H](COc1ccc(F)nc1)N(C)C.Cc1ccc(S(=O)(=O)O)cc1	70.2
5. CCN[C@H](C)COc1ccc(Cl)nc1	2310
6. C[C@@H](N)COc1cnc(Cl)c(Br)c1.Cc1ccc(S(=O)(=O)O)cc1	1.54
7. Cc1cc(OC[C@H](C)N(C)C)cnc1Cl.Cc1ccc(S(=O)(=O)O)cc1	9.6
8. CCCN[C@H](C)COc1ccc(Cl)nc1	7530
9. CN(C)[C@H](COc1cnc(Cl)c(Br)c1)Cc1ccccc1	319

====

Readout type: melting point

1) CC[C@@H](COc1cnc(Cl)c(C=Cc2ccncc2)c1)N(C)C	73 to 75 °C
2) CN(C)[C@H](COc1cnc(Cl)c(C=Cc2ccncc2)c1)Cc1ccccc1	81 to 83 °C
3) CC(COc1cnc(Cl)c(C=Cc2ccncc2)c1)N(C)C (single isomer, unassigned) [Example 39]	81 to 83 °C
4) CC(COc1cnc(Cl)c(C=Cc2ccncc2)c1)N(C)C (single isomer, unassigned) [Example 14]	79 to 81 °C

====

System name: neuronal nicotinic acetylcholine receptors (Rattus norvegicus, UniProt P09483+P12390)
Construct: crude synaptic membrane preparations from whole rat brain; from tissue; host or cells: whole rat brain, crude synaptic membranes
Measurement notes: [3H]-cytisine binding to neuronal nicotinic acetylcholine receptors, crude synaptic membranes from whole rat brain
Condition notes: Ki (nM)
Readout type: Ki

1. CC(N)COc1ccc(Cl)nc1 (stereo in doubt) [Example 26]	5.34 nM

====

Reported pKi values for a set of compounds
System name: neuronal nicotinic acetylcholine receptors (Rattus norvegicus, UniProt P09483+P12390)
Construct: crude synaptic membrane preparations from whole rat brain; from tissue; host or cells: whole rat brain, crude synaptic membranes
Measurement notes: [3H]-cytisine binding to neuronal nicotinic acetylcholine receptors, crude synaptic membranes from whole rat brain
Condition notes: [3H]-CYT 1.25 nM, whole rat brain membranes, 60 minutes at 4° C.; Cheng and Prusoff correction; Table 1; read-out: Ki
pKi: −log10 of the molar value.
Readout type: pKi

1. C[C@@H](COc1ccc(F)nc1)N(C)C.Cc1ccc(S(=O)(=O)O)cc1	7.00
2. C[C@H](N)COc1cnc(Cl)c(Br)c1.Cc1ccc(S(=O)(=O)O)cc1	8.81
3. Cc1cc(OC[C@@H](C)N(C)C)cnc1Cl.Cc1ccc(S(=O)(=O)O)cc1	8.14
4. C[C@H](N)COc1cnc(Cl)c(C=Cc2ccncc2)c1.Cc1ccc(S(=O)(=O)O)cc1	10.12

====

The entries below are paired with their reported pKi.
System name: neuronal nicotinic acetylcholine receptors (Rattus norvegicus, UniProt P09483+P12390)
Construct: crude synaptic membrane preparations from whole rat brain; from tissue; host or cells: whole rat brain, crude synaptic membranes
Measurement notes: [3H]-cytisine binding to neuronal nicotinic acetylcholine receptors, crude synaptic membranes from whole rat brain
Condition notes: [3H]-CYT 1.25 nM, whole rat brain membranes, 60 minutes at 4° C.; Cheng and Prusoff correction; Table 1; read-out: Ki
pKi: −log10 of the molar value.
Readout type: pKi

1. CC(COc1cnc(Cl)c(C=Cc2ccncc2)c1)N(C)C (single isomer, unassigned) [Example 39]	9.99
2. Cc1cc(OC[C@@H](C)N)cnc1Cl.Cc1ccc(S(=O)(=O)O)cc1 [Example 35]	9.01
3. CN[C@@H](C)COc1ccc(F)nc1.Cc1ccc(S(=O)(=O)O)cc1 [Example 6]	7.16
